- Test system: MS2 coat protein
- assay method text: apparent KD of MS2 coat protein, switch OFF state (with FMN for OFF switches, without FMN for ON switches); designed switch direction (-1 OFF switch, 1 ON switch): -1; higher = weaker reporter binding
- measurement conditions: FMN input: 0 or 200 uM; Eterna round: R93 (includes R88 designs)
apparent KD of MS2 coat protein values, listed per item

{"macromolecule sequence": "AACAGGACAGGAUAUACAUGAGGAUCACCCAUGUAGGAACAAAGCAGAGUACCAAACAGUAGAAGGGUCAUGGA [Ruby 28]", "apparent KD of MS2 coat protein (nM)": 37.2}
{"macromolecule sequence": "AGCUAGACAGGAUAUACGAACAUGUCAAAAGACGUAAGGGAACAUGAGGAUCACCCAUGUAGAAGGGUCUAGCA [Diamond 50]", "apparent KD of MS2 coat protein (nM)": 63.9}
{"macromolecule sequence": "CUCUAGUCAGGAUAUACAAGAAAAGAAGAGAAAGAAAAGAAGUAGAAGGGACAUGAGGAUCACCCAUGUAAGAA [EteRNA is fun!]", "apparent KD of MS2 coat protein (nM)": 48.2}
{"macromolecule sequence": "AGUAGUACAGGAUAUACAUGAGGAUCACCCAUGUGAAAAGAAAGUGGCGUACCACAAAGUAGAAGGGUACUACA [Mat - Exclusion 3 - JL mod - D34]", "apparent KD of MS2 coat protein (nM)": 152}
{"macromolecule sequence": "AAAAAACAUGAGGAUCACCCAUGUAAGGAUAUCGUGCAGAAAAAAAAAAAAAACUGCACGAGAAGGUACUUGGA [Brourd - Exclusion 1 - Sub 3]", "apparent KD of MS2 coat protein (nM)": 87.9}
{"macromolecule sequence": "AAAUAGCAAGGAUAUACAUGAGGAUCACCCAUGUGAAAAAGGUAUGGAAUAGAAUAGAGUAGAAGGUGCAAAUA [Mod of Ex 3 Tesla 8 - Jieux - Exclusion 3]", "apparent KD of MS2 coat protein (nM)": 35.7}
